The reported numbers originate from paper PMC8809517.

- test-system: T1, GFP-9S library array, motif 4 ND N98C;D124E (synthetic construct, N98C;D124E)
- T1 chain: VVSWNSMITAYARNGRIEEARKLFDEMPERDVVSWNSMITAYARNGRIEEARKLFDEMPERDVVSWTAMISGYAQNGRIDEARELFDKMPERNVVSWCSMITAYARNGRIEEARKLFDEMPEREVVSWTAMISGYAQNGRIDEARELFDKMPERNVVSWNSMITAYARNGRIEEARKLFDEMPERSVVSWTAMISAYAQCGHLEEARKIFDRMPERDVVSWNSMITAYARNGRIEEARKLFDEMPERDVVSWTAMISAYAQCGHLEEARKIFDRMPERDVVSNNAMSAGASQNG
- assay-remarks: high-throughput RNA pulldown from lysate on Ni-NTA beads; HRP: 50 mM Tris pH 8, 150 mM NaCl, 1 mM beta-mercaptoethanol, 50 ug/ml BSA, 3 ug/ml yeast RNA, 0.5% heparin; ITC and FP: Tris pH 8, 200 mM KCl, 5% glycerol; MST: 50 mM Tris pH 8, 200 mM NaCl, 1 mM DTT, BSA, heparin, 0.05% Tween 20
- condition-set: tags: N-terminal His-eGFP; label: 5' Cy5
pKd: −log10 of the molar value.
# pKd annotations
experimental-readout: pKd

binder | experimental-value
AUUAGACGUGA (ssRNA) [Cy5-rpoA-G] | 7.40
AUUACACGUGA (ssRNA) [Cy5-rpoA] | 6.30
